- System: HCT116
- procedureDetails: In vitro cytotoxicity assay (MTS)
- studyConditions: Homo sapiens, HCT-116, 24 h, read-out: IC50 (relative IC50)
measurementType: pIC50
Hey, just a heads up that pIC50 is the negative log base 10 of the concentration in molar.

Item CCc1c2c(nc3ccc(OC(=O)N4CCC(N5CCCCC5)CC4)cc13)-c1cc3c(c(=O)n1C2)COC(=O)[C@]3(O)CC has what recorded pIC50?
5.14

----------
- Test system: HT-29
- procedureDetails: In vitro cytotoxicity assay (MTS)
- studyConditions: Homo sapiens, HT-29, 72 h, read-out: IC50 (relative IC50)
measurementType: pIC50
# pIC50: negative log10 of molar concentration; output just the value

What value of measured pIC50 is listed for CCc1c2c(nc3ccc(OC(=O)N4CCC(N5CCCCC5)CC4)cc13)-c1cc3c(c(=O)n1C2)COC(=O)[C@]3(O)CC [Irinotecan] ?
5.15
